# key: entry, value: IC50
System: L6 rat skeletal myoblast cell line
Assay: Cytotoxicity towards L6 cells
Format: cell-based
Conditions: L6 rat skeletal myoblast cell line; average of two independent assays; read-out: IC50 L6

Please review the following examples before continuing.
{"columns": ["item_smiles", "tested_target", "IC50"],
 "data": [
  ["COc1ccc2c(C(=O)C(=O)NCCCNCCCCCCCCNCCCNC(=O)C(=O)c3c[nH]c4cc(OC)ccc34)c[nH]c2c1.O=C(O)C(F)(F)F.O=C(O)C(F)(F)F", "L6 rat skeletal myoblast cell line", "21 µM"],
  ["CC(C)(C)OC(=O)N(CCCCCCCCCCCCN(CCCNC(=O)Cc1c[nH]c2ccccc12)C(=O)OC(C)(C)C)CCCNC(=O)Cc1c[nH]c2ccccc12", "L6 rat skeletal myoblast cell line", "45 µM"],
  ["COc1ccc2[nH]cc(C(=O)C(=O)NCCCN(CCCCCCCCCCCCN(CCCNC(=O)C(=O)c3c[nH]c4ccc(OC)cc34)C(=O)OC(C)(C)C)C(=O)OC(C)(C)C)c2c1", "L6 rat skeletal myoblast cell line", "19 µM"],
  ["COc1cccc2c(C(=O)C(=O)NCCCNCCCCCCCCCCCCNCCCNC(=O)C(=O)c3c[nH]c4c(OC)cccc34)c[nH]c12.O=C(O)C(F)(F)F.O=C(O)C(F)(F)F", "L6 rat skeletal myoblast cell line", "2.1 µM"]
]}

Any idea what IC50 was measured for CC(C)(C)OC(=O)N(CCCCN(CCCNC(=O)Cc1c[nH]c2ccccc12)C(=O)OC(C)(C)C)CCCNC(=O)Cc1c[nH]c2ccccc12 ?
19 µM

----------
# key: entry, value: pIC50
System: L6 rat skeletal myoblast cell line
Assay: Cytotoxicity towards L6 cells
Assay type: cell-based
Conditions: L6 rat skeletal myoblast cell line; average of two independent assays; read-out: IC50 L6
When answering, recall that pIC50 equals minus log10 of the concentration in mol/L, and write that number alone.

{"columns": ["item_smiles", "observed_value"],
 "data": [
  ["O=C(NCCCNCCCCNCCCNC(=O)C(=O)c1c[nH]c2cc(Br)ccc12)C(=O)c1c[nH]c2cc(Br)ccc12.O=C(O)C(F)(F)F.O=C(O)C(F)(F)F", 5.11],
  ["CC(C)(C)OC(=O)N(CCCCCCCCN(CCCNC(=O)C(=O)c1c[nH]c2cc(Br)ccc12)C(=O)OC(C)(C)C)CCCNC(=O)C(=O)c1c[nH]c2cc(Br)ccc12", 4.04]
]}

Any idea what pIC50 was measured for O=C(NCCCNCCCCCCCCCCCCNCCCNC(=O)C(=O)c1c[nH]c2ccccc12)C(=O)c1c[nH]c2ccccc12.O=C(O)C(F)(F)F.O=C(O)C(F)(F)F ?
5.64

Could you do the same for O=C(NCCCCNCCCNC(=O)C(=O)c1c[nH]c2cc(Br)ccc12)C(=O)c1c[nH]c2cc(Br)ccc12.O=C(O)C(F)(F)F , please?
5.26

Could you do the same for COc1cccc2c(C(=O)C(=O)NCCCNCCCCCCCCNCCCNC(=O)C(=O)c3c[nH]c4c(OC)cccc34)c[nH]c12.O=C(O)C(F)(F)F.O=C(O)C(F)(F)F , please?
5.18

----------
# key: entry, value: pIC50
System: Trypanosoma brucei rhodesiense, STIB 900 strain, trypomastigotes stage
Assay: In vitro anti-trypanosomal activity (growth inhibition)
Format: cell-based
Conditions: Trypanosoma brucei; STIB 900 strain, trypomastigotes; average of two independent assays; read-out: IC50 T. b. rhod.
Protocol: The in vitro activities against the protozoan parasites T.b. rhodesiense, and P. falciparum and cytotoxicity assessment against L6 cells were determined as reported elsewhere.
When answering, recall that pIC50 equals minus log10 of the concentration in mol/L, and write that number alone.

Please review the following examples before continuing.
{"columns": ["item_smiles", "pIC50"],
 "data": [
  ["CC(C)(C)OC(=O)N(CCCCCCCCCCCCN(CCCNC(=O)C(=O)c1c[nH]c2ccccc12)C(=O)OC(C)(C)C)CCCNC(=O)C(=O)c1c[nH]c2ccccc12", 4.21],
  ["COc1ccc2c(C(=O)C(=O)NCCCN(CCCCCCCCN(CCCNC(=O)C(=O)c3c[nH]c4cc(OC)ccc34)C(=O)OC(C)(C)C)C(=O)OC(C)(C)C)c[nH]c2c1", 5.21]
]}

What measured pIC50 is associated with COc1cccc2c(C(=O)C(=O)NCCCNCCCCCCCCCCCCNCCCNC(=O)C(=O)c3c[nH]c4c(OC)cccc34)c[nH]c12.O=C(O)C(F)(F)F.O=C(O)C(F)(F)F on Trypanosoma brucei rhodesiense, STIB 900 strain, trypomastigotes stage?
6.59
